SUBJECT OF TEST: Grb2 SH2 (UniProt P62993)
Sequence (P62993 whole entry, looked up, the tested form may be a part): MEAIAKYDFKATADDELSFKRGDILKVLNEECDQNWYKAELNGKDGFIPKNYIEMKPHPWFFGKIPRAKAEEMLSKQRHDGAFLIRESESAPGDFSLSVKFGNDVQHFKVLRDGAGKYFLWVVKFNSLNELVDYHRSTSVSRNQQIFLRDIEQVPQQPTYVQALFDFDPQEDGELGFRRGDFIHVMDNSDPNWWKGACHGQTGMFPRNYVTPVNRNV
TEST SUMMARY: SH2 binding enrichment of the phosphorylated peptide, bacterial display (enrichment ratio); higher = better substrate or ligand; peptides without Tyr show the background;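 further: peptide library displayed on the E. coli surface as eCPX fusions, selected cells deep-sequenced, score is each peptide's frequency after selection divided by its frequency in the input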

| RESIDUES | SH2 binding enrichment |
| --- | --- |
| LENSTYQFICV [CRB1_Y760_R764C_YF] | 0.9 |
| CITIHYNYMCN [TP53_Y234_T230I] | 1.56 |
| PLDGEYFSLQI [TP53_Y327_T329S] | 0.762 |
| TGHKGYVAFLE [CARD9_Y76] | 0.739 |
| TENAGYFFRVS | 0.724 |
| VIKSSYQVAKA [CPT1B_Y534_E531K] | 0.783 |
| QNVADYMRFLM [RPL5_Y207_YF] | 0.894 |
| TSEASYFKSLN [NGEF_Y288_YF] | 0.56 |
| DTQNSYRCATS [TSC1_Y304_G305R] | 0.956 |
| PFSSPYENSLI [EPOR_Y489_N487S_YF] | 14.1 |
| EHLNRYINDTF [TTLL10_Y446_S448N] | 6.49 |
| VTPSEYLEIVR [TMEM130_Y412_E407V] | 0.763 |
| QPTPGYEVGQR [TSC2_Y1788_E1783Q] | 1.07 |
| SWSTSYSGYRY [NKAPL_Y91] | 1.17 |
